Entry source: patent US20260167721A1

- measured on: T1, recombinant human CD3 epsilon/gamma heterodimer (human, UniProt P07766 23-126; P09693 23-116)
- T1 construct: Recombinant protein in solution (200-50 nM) in the Octet assay; also called hCD3 E/G
- method description: Octet BLI, mAb on FAB2G sensor, hCD3 E/G 200-50 nM; R^2 0.99
parameter measured: kon (M⁻¹ s⁻¹)

INSERT INTO measurements (binder, parameter_measured, value_unit, recorded_measurement) VALUES
  ('ABL-CD3-50 (antibody, V domains shown, Chimeric hybridoma mAb: human V, CH1, upper hinge; mouse middle hinge, CH2, CH3) VH: QVQLQQSGPGLVKPSQTLSLTCAISGDSVSSNSVAWNWIRQSPSRGLEWLGRTYSRSKWYNDYAVSVKSRITINPDTSKNQFSLELNSVTPEDTAVYYCARERKWELFLDYWGQGTLVTVSS VL: NFMLTQPHSVSESPGKTVTISCTRSSGSIASNYVQWYQQRPGISPTTVIYEDNQRPSGVPDRFSGSIDSSSNSASLTISGLKTEDEADYYCQSFDTSNVVFGGGTKLTVL', 'kon', 'M⁻¹ s⁻¹', 196000),
  ('ABL-CD3-20 (antibody, V domains shown, Chimeric hybridoma mAb: human V, CH1, upper hinge; mouse middle hinge, CH2, CH3) VH: EVQLVESGGGLVKPGGSLRLSCAASGLTFSTYSMNWVRQAPGKGLEWVSSISSSGSYVYYADSVKGRFTMSRDNAKNSLYLQMNSLRAEDTAVYYCARERRELLFDYWGQGTLVTVSS VL: NFMLTQPHSVSESPGKTVTISCTRSSGSIASNYVQWYQQRPGSSPTSVIYEDNQRPSGVPDRFSGSIDSSSNSASLTISGLKTEDEADYYCQSYDRSNRVFGGGTKLTVL', 'kon', 'M⁻¹ s⁻¹', 207000),
  ('ABL-CD3-10 (antibody, V domains shown, Chimeric hybridoma mAb: human V, CH1, upper hinge; mouse middle hinge, CH2, CH3) VH: QVQLQQSGPGLVKPSQTLSLTCAISGDSVSCNSVAWNWIRQSPSRGLEWLGRTYYRSKWHNEYAVSVKSRINIKPDTSKNQVSLQLKSVTPEDTAVYYCARERKWELFLDYWGQGTLVTVSS VL: NFMLTQPHSVSESPGKTVTISCTRSSGSIASNYVQWYQQRPGSSPTTMIYEDNQRPSGVPDRFSGSIDSSSNSASLTISGLKTEDEADYYCQSLDSSSVVFGGGTKLTVL', 'kon', 'M⁻¹ s⁻¹', 162000);
